# Maximum inhibition rate %; hIL36αβγ; IL-8 production per record follows
- TEST_SYSTEM: T1, IL-36R naturally expressed on OVCAR8 cells and on normal human epidermal keratinocytes (NHK cells) (human, UniProt Q9HB29 20-575)
- T1 sequence (looked up): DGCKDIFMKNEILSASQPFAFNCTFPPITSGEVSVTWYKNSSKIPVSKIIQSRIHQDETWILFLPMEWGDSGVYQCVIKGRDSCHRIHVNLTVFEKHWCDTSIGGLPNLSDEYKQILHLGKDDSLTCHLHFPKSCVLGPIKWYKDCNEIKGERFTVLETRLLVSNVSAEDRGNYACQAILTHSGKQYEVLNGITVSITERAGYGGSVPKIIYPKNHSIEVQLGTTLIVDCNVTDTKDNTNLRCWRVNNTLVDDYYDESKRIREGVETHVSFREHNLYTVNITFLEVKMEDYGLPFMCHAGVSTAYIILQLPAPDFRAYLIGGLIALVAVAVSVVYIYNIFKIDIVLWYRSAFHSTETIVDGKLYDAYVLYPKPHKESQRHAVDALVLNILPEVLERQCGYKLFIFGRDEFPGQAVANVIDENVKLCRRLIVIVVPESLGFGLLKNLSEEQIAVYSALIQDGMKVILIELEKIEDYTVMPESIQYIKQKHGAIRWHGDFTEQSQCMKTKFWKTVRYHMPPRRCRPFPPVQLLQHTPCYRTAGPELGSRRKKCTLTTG
- METHOD_DESCRIPTION: cell-based or functional assay
READOUT_KIND: Maximum inhibition rate %; hIL36αβγ; IL-8 production

| BINDER | READING |
| --- | --- |
| hz84C4-1.1 (antibody, human IgG4 S228P, kappa, V domains shown, Humanized, human IgG4 / kappa) VH: QVQLVQSGAEVKKPGASVKVSCKASGYFFTSYWMNWVRQAPGQGLEWMGMIHPYDSETRYAQKFQGRVTMTVDKSTSTVYMELSSLRSEDTAVYYCASSTTAFAYWGQGTLVTVSS VL: DIQMTQSPSSLSASVGDRVTITCRASQDIGNALNWYQQKPGKAPKRLIYATSSLDPGVPSRFSGSRSGTDFTLTISSLQPEDFATYYCLQYASSPYTFGQGTKVEIKR | 99.9% |
| hz84C4-2.4 (antibody, human IgG4 S228P, kappa, V domains shown, Humanized, human IgG4 / kappa) VH: QVQLVQSGAEVKKPGASVKVSCKASGYYFTSYWMNWVRQAPGQGLEWMGMIHPYDSETRLAQKFKGRVTMTVDKSTSTVYMELSSLRSEDTAVYYCASSTTAFAYWGQGTLVTVSS VL: DIQMTQSPSSLSASVGDRVTITCRASQDIGNALNWLQQKPGKAPKRLIYATSSLDPGVPSRFSGSRSGTDYTLTISSLQPEDFATYYCLQYASSPYTFGQGTKVEIKR | 98.8% |
| hz84C4-2.5 (antibody, human IgG4 S228P, kappa, V domains shown, Humanized, human IgG4 / kappa) VH: QVQLVQSGAEVKKPGASVKVSCKVSGYFFTSYWMNWVNQAPGQGLEWMGMIHPYDSETRLAQKFKGRVTMTVDKSTSTVYMELSSLRSEDTAVYYCASSTTAFAYWGQGTLVTVSS VL: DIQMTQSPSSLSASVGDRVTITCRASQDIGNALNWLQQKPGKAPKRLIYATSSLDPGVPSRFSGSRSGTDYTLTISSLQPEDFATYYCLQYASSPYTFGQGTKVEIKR | 99.2% |

// provenance: patent US20240270857A1
